- studyTarget: Recombinant human CD33 protein (Homo sapiens (Human))
- procedureText: CD33 competitive binding assay for HTS drug screen (fluorescent multivalent sialic acid probe)
Entries annotated with measured log10 EC50
Values reflect log10 of reported EC50 (nM).

INSERT INTO measurements (compound, resultvalue) VALUES
  ('CC(=O)N[C@H]1[C@H]([C@H](O)[C@H](O)CNC(=O)c2cc(C)c(O)c(C)c2)O[C@@](CCN2CCOC[C@@]23CCN(C(=O)C2(C(F)(F)F)CCCCC2)C3)(C(=O)O)C[C@@H]1O [A-102]', 2.60),
  ('CC(=O)N[C@H]1[C@H]([C@H](O)[C@H](O)CNC(=O)c2cc(C)c(O)c(C)c2)O[C@@](C[C@@H]2COC[C@@]3(CCN(C(=O)OC(C)(C)C)C3)N2)(C(=O)O)C[C@@H]1O [A-226]', 3.59),
  ('CC(=O)N[C@H]1[C@H]([C@H](O)[C@H](O)CNC(=O)c2cc(C)c(O)c(C)c2)O[C@@](C/C=C/C2(C)CCN(C(=O)OC(C)(C)C)C2)(C(=O)O)C[C@@H]1O (stereo partly shown) [A-195]', 1.62);

Give the reported value of log10 EC50 for this record: CC(=O)N[C@H]1[C@H]([C@H](O)[C@H](O)CNC(=O)c2cc(C)c(O)c(C)c2)O[C@@](CCN2CCOC[C@@]23CCN(c2cc(C4CC4)ccn2)C3)(C(=O)O)C[C@@H]1O [A-036] 1.20

Find the measured log10 EC50 of CC(=O)N[C@H]1[C@H]([C@H](O)[C@H](O)CNC(=O)c2cc(C)c(O)c(C)c2)O[C@@](CCN2CCOC[C@@]23CCN(C(=O)C2(C)COC2)C3)(C(=O)O)C[C@@H]1O [A-100] and report it. 3.37

Give log10 EC50 for the following compound: C=C(OC(C)(C)C)N1CCC2(CC1)CCN2CC[C@]1(C(=O)O)C[C@H](O)[C@@H](NC(C)=O)[C@H]([C@H](O)[C@H](O)CNC(=O)c2cc(C)c(O)c(C)c2)O1 [A-023] 2.25

* * *

- studyTarget: Recombinant human CD33 protein (Homo sapiens (Human), UniProt P20138)
- Sequence (P20138 18-259): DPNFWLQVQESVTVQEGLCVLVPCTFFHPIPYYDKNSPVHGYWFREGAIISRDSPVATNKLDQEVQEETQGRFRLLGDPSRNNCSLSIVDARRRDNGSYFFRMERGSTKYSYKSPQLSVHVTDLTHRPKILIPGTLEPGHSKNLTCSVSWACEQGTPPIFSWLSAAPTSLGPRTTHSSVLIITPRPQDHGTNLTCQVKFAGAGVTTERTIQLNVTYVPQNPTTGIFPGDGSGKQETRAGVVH
- procedureText: CD33 competitive binding assay for HTS drug screen (fluorescent multivalent sialic acid probe)
observedProperty: EC50 (µM)
Dear colleague, please return just the value in µM, with no unit written.

INSERT INTO measurements (compound, observedproperty, resultvalue) VALUES
  ('CC(=O)N[C@H]1[C@H]([C@H](O)[C@H](O)CNC(=O)c2cc(C)c(O)c(C)c2)O[C@@](CC2OC(C)(C)O[C@H]2c2ccc3c(c2)N(C(=O)OC(C)(C)C)CC3)(C(=O)O)C[C@@H]1O (stereo partly shown)', 'EC50', 2.94),
  ('CC(=O)N[C@H]1[C@H]([C@H](O)[C@H](O)CNC(=O)c2cc(C)c(O)c(C)c2)O[C@@](CCN2CCOC[C@@]23CCN(C(=O)NC(C)C)C3)(C(=O)O)C[C@@H]1O', 'EC50', 0.024),
  ('CC(=O)N[C@H]1[C@H]([C@H](O)[C@H](O)CNC(=O)c2c[nH]nc2C(F)(F)F)O[C@@](CCN2CCOC[C@@]23CCN(C(=O)OC(C)(C)C)C3)(C(=O)O)C[C@@H]1O', 'EC50', 4.11),
  ('CC(=O)N[C@H]1[C@H]([C@H](O)[C@H](O)CNC(=O)c2ccc3c(c2)N(C)C(=O)CO3)O[C@@](CCN2CCOC[C@@]23CCN(C(=O)OC(C)(C)C)C3)(C(=O)O)C[C@@H]1O', 'EC50', 0.219),
  ('Cc1cc(C(=O)NC[C@@H](O)[C@@H](O)[C@@H]2O[C@@](C/C=C/c3cccc(CNC(=O)C4C5OCCC[C@H]54)c3)(C(=O)O)C[C@H](O)[C@H]2NC(=O)Cn2cc(C3CCCCC3)nn2)cc(C)c1O (stereo partly shown)', 'EC50', 9.64),
  ('CC(=O)N[C@H]1[C@H]([C@H](O)[C@H](O)CNC(=O)c2ccc(O)c(C)c2)O[C@@](CCN2CCOC[C@@]23CCN(C(=O)OC(C)(C)C)C3)(C(=O)O)C[C@@H]1O', 'EC50', 0.028),
  ('CC(=O)N[C@H]1[C@H]([C@H](O)[C@H](O)CNC(=O)c2ccc(O)c(NC=O)c2)O[C@@](CCN2CCOC[C@@]23CCN(C(=O)OC(C)(C)C)C3)(C(=O)O)C[C@@H]1O', 'EC50', 0.51),
  ('Cc1ccc(CNC(=O)C2CCCOC2)cc1/C=C/C[C@]1(C(=O)O)C[C@H](O)[C@@H](NC(=O)Cn2cc(C3CCCCC3)nn2)[C@H]([C@H](O)[C@H](O)CNC(=O)c2cc(C)c(O)c(C)c2)O1 (stereo partly shown)', 'EC50', 2.84),
  ('CC(=O)N[C@H]1[C@H]([C@H](O)[C@@](C)(O)CNC(=O)c2cc(C)c(O)c(C)c2)O[C@@](CCN2CCOC[C@@]23CCN(C(=O)OC(C)(C)C)C3)(C(=O)O)C[C@@H]1O', 'EC50', 1.82),
  ('CC(=O)N[C@H]1[C@H]([C@H](O)[C@H](O)CNC(=O)c2ccc(Cl)c(Cl)c2)O[C@@](CCN2CCOC[C@@]23CCN(C(=O)OC(C)(C)C)C3)(C(=O)O)C[C@@H]1O', 'EC50', 0.127);

With Recombinant human CD33 protein (Homo sapiens (Human), UniProt P20138) as the test system, provide measured EC50 for this compound: CC(=O)N[C@H]1[C@H]([C@H](O)[C@H](O)CNC(=O)c2cc(C)c(O)c(C)c2)O[C@@](CCN2CCN(C)C[C@@]23CCN(C(=O)NC(C)(C)C)C3)(C(=O)O)C[C@@H]1O 0.008

Report the value of EC50 obtained on Recombinant human CD33 protein (Homo sapiens (Human), UniProt P20138) for CC(=O)N[C@H]1[C@H]([C@H](O)[C@H](O)CNC(=O)c2cc(C)c(O)c(C)c2)O[C@@](CCN2CCOC[C@@]23CCN(C(=O)COCC(F)(F)F)C3)(C(=O)O)C[C@@H]1O . 1.95

Fetch value of EC50 on Recombinant human CD33 protein (Homo sapiens (Human), UniProt P20138) for CC(=O)N[C@H]1[C@H]2O[C@](C(=O)O)(C/C=C/c3cccc(c3)[C@@H](NC(=O)C3CCCOC3)CCCCc3cc(cc(Cl)c3O)C(=O)NC[C@@H](O)[C@H]2O)C[C@@H]1O (stereo partly shown) . 19

Determine reported EC50 for C=CC[C@@]1(NCC[C@]2(C(=O)O)C[C@H](O)[C@@H](NC(C)=O)[C@H]([C@H](O)[C@H](O)CNC(=O)c3cc(C)c(O)c(C)c3)O2)CCN(C(=O)OC(C)(C)C)C1 ; test system: Recombinant human CD33 protein (Homo sapiens (Human), UniProt P20138). 0.181

Quote EC50 with test system Recombinant human CD33 protein (Homo sapiens (Human), UniProt P20138) for Cc1cc2cc(C)c1OCCNC(=O)CCCCCCCC[C@]1(C(=O)O)C[C@H](O)[C@@H](NC(=O)Cn3cc(C4CCCCC4)nn3)[C@@H](O1)[C@H](O)[C@H](O)CNC2=O 19

# return EC50 of Cc1cc2cc(C)c1OCCCC[C@H](NC(=O)C1CCCOC1)c1cccc(c1)/C=C/C[C@]1(C(=O)O)C[C@H](O)[C@@H](NC(=O)Cn3cc(C4CCCCC4)nn3)[C@@H](O1)[C@H](O)[C@H](O)CNC2=O (stereo partly shown) (system: Recombinant human CD33 protein (Homo sapiens (Human), UniProt P20138)) 13.3

Send back Recombinant human CD33 protein (Homo sapiens (Human), UniProt P20138) EC50 of CC(=O)N[C@H]1[C@H]([C@H](O)[C@H](O)CNC(=O)c2cc(C)c(O)c(C)c2)O[C@@](CCN2CCOC[C@@]23CCN(c2cc(N(C)C)ccn2)C3)(C(=O)O)C[C@@H]1O only. 0.58

Enter recorded EC50 with Recombinant human CD33 protein (Homo sapiens (Human), UniProt P20138) for CC(=O)N[C@H]1[C@H]([C@H](O)[C@H](O)CNC(=O)c2cc(C)c(O)c(C)c2)O[C@@](CCN2CCOC[C@@]23CCN(C(=O)C2CCCCC2(F)F)C3)(C(=O)O)C[C@@H]1O (stereo partly shown) here. 0.031

Return reported EC50 for target or system Recombinant human CD33 protein (Homo sapiens (Human), UniProt P20138), item CC(=O)N[C@H]1[C@H]([C@H](O)[C@H](O)CNC(=O)c2ccc3occc3c2)O[C@@](CCN2CCOC[C@@]23CCN(C(=O)OC(C)(C)C)C3)(C(=O)O)C[C@@H]1O [A-137] . 0.076
